Origin of the recorded values: paper PMC3369218

Target: WT DaCld (Dechloromonas aromatica, UniProt Q47CX0)
Sequence (Q47CX0 32-282): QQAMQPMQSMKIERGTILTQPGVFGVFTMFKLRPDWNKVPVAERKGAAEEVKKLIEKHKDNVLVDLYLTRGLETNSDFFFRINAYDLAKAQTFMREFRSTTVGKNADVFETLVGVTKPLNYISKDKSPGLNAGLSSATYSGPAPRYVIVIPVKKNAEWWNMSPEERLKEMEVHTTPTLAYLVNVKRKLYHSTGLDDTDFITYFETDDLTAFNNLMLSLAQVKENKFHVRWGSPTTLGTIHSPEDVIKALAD
Experiment: Equilibrium binding of ligands, spectrophotometric titration, WT DaCld
Details: read-out: Maximal KD; pH 7
pKd: −log10 of the molar value.
property-label: pKd

[N-]=[N+]=[N-] [N3^–, azide] | 5.08

====

Target: DaCld(R183Q) (Dechloromonas aromatica, UniProt Q47CX0, R217Q)
Sequence (Q47CX0 35-282 R217Q): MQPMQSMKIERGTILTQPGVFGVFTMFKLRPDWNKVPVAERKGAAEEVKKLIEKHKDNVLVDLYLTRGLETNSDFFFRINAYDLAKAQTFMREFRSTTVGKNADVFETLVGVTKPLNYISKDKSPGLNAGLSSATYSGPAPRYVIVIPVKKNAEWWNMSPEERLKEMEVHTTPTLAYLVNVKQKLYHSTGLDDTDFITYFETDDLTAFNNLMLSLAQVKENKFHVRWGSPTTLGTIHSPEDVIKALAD
Test: biochemical
Assay type: binding
pKd: −log10 of the molar value.
property-label: pKd

c1c[nH]cn1 | 4.57
